Attribution: patent US8653087B2

Each entry below carries its reported pIC50.
target: B-Raf (V600E)-kinase (Homo sapiens (Human), UniProt P15056, V600E); assay: Kinase test B-RAF (V600E); format: biochemical; details: B-RAF (V600E) kinase test, 250 μM ATP
Sequence (P15056 whole entry V600E): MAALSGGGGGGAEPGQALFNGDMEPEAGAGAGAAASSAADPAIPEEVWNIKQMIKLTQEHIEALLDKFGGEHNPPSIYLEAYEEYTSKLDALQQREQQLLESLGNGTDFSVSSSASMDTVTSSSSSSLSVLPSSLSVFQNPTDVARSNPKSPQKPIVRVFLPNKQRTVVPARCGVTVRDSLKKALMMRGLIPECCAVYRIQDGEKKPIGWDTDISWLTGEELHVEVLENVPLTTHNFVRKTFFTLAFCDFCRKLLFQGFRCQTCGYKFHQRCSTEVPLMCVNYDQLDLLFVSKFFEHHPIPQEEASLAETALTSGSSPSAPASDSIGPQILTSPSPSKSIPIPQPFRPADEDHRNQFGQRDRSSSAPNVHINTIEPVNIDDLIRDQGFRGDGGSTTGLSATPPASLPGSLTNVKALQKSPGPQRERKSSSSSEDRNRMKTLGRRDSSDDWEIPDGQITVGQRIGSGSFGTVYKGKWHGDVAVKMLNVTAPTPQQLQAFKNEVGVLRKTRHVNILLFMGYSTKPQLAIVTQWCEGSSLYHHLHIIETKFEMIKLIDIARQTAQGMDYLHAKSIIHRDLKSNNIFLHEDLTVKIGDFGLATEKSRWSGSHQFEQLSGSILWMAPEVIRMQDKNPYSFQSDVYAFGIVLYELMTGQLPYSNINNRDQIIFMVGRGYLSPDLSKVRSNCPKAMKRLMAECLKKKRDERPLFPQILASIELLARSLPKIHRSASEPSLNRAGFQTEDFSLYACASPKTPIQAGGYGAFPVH
pIC50: −log10 of the molar value.
PARAMETER: pIC50

Cc1ccc(C(=O)NCc2ccc(C(F)(F)F)cc2)cc1Nc1ncnc2cnc(N3CCCCC3)nc12 [III-246]: 7.54
Cc1ccc(C(=O)NC2CCCCC2)cc1Nc1ncnc2cnc(N3CCCC3)nc12 [III-258]: 4.82
Cc1ccc(C(=O)Nc2cc(N(C)CCN(C)C)cc(C(F)(F)F)c2)cc1Nc1ncnc2cnc(N(C)CC3CCCCO3)nc12 (centres unmarked) [III-407]: 8.00
CC(C)(C)c1cc(NC(=O)c2ccc(C(F)(F)F)c(Nc3ncnc4cnc(NCCCN5CCOCC5)nc34)c2)no1 [III-62]: 6.26
COc1ncc2ncnc(Nc3cc(NC(=O)c4ccc(Cl)c(C(F)(F)F)c4)ccc3C)c2n1 [IV-50]: 7.23
COc1ccc(NC(=O)c2ccc(F)c(Nc3ncnc4cnc(NCCN5CCOCC5)nc34)c2)cc1C(F)(F)F [III-40]: 8.70
Cc1ccc(C(=O)NCc2ccc(C(F)(F)F)cc2)cc1Nc1ncnc2cnc(N3CCCN(C)CC3)nc12 [III-221]: 6.77
Cc1ccc(C(=O)NCc2ccc(C(F)(F)F)cc2)cc1Nc1ncnc2cnc(N3CCOCC3)nc12 [III-307]: 6.94
